These measurements were taken from patent US10370380B2.

Test: Pharmacokinetic evaluation after intravenous or gavage administration to dogs
Assay type: in vivo, Beagle dogs
Conditions: beagle, dog, in vivo, iv, 1 mg/kg
This listing pairs molecules with measured half-life.
Give the value, in units of min, as a plain number.

Below: 2 molecules and their reported half-life.
{"columns": ["Molecule", "half-life / min"],
 "data": [
  ["Cc1ccc(-n2nccn2)c(C(=O)N2CC3CN(c4ncc5cc(F)ccc5n4)CC3C2)c1 (stereo not drawn) [Example 12]", 42],
  ["Cc1ccc(-n2nccn2)c(C(=O)N2CC3CN(c4nc5cc(Cl)ccc5o4)CC3C2)c1 (stereo not drawn) [Example 1]", 224]
]}

Identify measured half-life corresponding to O=C(c1c(F)cccc1-n1nccn1)N1CC2CN(c3nc4cc(Cl)ccc4o3)CC2C1 (stereo not drawn) [Example 3] 144
